For each record, write down the corresponding melting point.

State recorded melting point for all listed compounds.
1. COc1ccc(N(CCC(O)CO)S(=O)(=O)c2c(F)c(F)c(F)c(F)c2F)cc1 (centres unmarked) [Example 54]
2. COc1ccc(NS(=O)(=O)c2c(F)c(F)c(F)c(F)c2F)cc1C(F)(F)F [Example 49]
3. C=CCCN(c1ccc(OC)cc1)S(=O)(=O)c1c(F)c(F)c(F)c(F)c1F [Example 51]
4. COc1ccc(N(CCCC(O)CO)S(=O)(=O)c2c(F)c(F)c(F)c(F)c2F)cc1 (centres unmarked) [Example 55]
5. COc1ccc(N(CC(O)CO)S(=O)(=O)c2c(F)c(F)c(F)c(F)c2F)cc1 (centres unmarked) [Example 53]

1. 126 to 128 °C
2. 121 to 123 °C
3. 64 to 66 °C
4. 116 to 118 °C
5. 130 to 131 °C

State recorded melting point for all listed compounds.
1. O=S(=O)(Nc1ccc(Cl)nc1)c1c(F)c(F)c(F)c(F)c1F [Example 36]
2. COc1ccc(NS(=O)(=O)c2c(F)c(F)c(F)c(F)c2F)cc1N [Example 59]
3. C=CCN(c1ccc(OC)cc1)S(=O)(=O)c1c(F)c(F)c(F)c(F)c1F [Example 50]
4. COc1ccc(N(CCCCO)S(=O)(=O)c2c(F)c(F)c(F)c(F)c2F)cc1 [Example 56]
5. COc1ccc(N(CCCCCO)S(=O)(=O)c2c(F)c(F)c(F)c(F)c2F)cc1O [Example 37]
6. COc1ccc(N(CCCCCO)S(=O)(=O)c2c(F)c(F)c(F)c(F)c2F)cc1 [Example 57]

144 to 145 °C
142 to 143 °C
59 to 60 °C
88 to 90 °C
118 °C
96 to 97 °C

State recorded melting point for all listed compounds.
1. COc1cc(Br)c(NS(=O)(=O)c2c(F)c(F)c(F)c(F)c2F)cc1F [Example 41]
2. COc1ccc(NS(=O)(=O)c2c(F)c(F)c(F)c(F)c2F)cc1 [Example 8]
3. COc1ccc(NS(=O)(=O)c2c(F)c(F)c(F)c(F)c2F)cc1[N+](=O)[O-] [Example 58]

109 °C
102 to 103 °C
95 to 97 °C
